Entry source: PubChem BioAssay (NCI)

# Tested on: NCI-H460 lung
# Protocol Details: NCI tumour cell line growth inhibition, 48 h
Test Readout: TGI

Illustrative cases are given below, each with its answer.
Molecule: CC(C)C(C/C=C1\CC(CO)(COC(=O)c2ccccc2)OC1=O)C(C)C (configuration not stated)
Test Readout: TGI
Measured Result: 43.7 µM
--
Molecule: CC(C)(C)NCc1cc(C(C)(C)C)cc(-c2ccc(Cl)cc2)c1O
Test Readout: TGI
Measured Result: 34.8 µM
--
Molecule: CC(=O)OCC1OC(n2cc(F)c(=O)[nH]c2=O)C(N)C(OC(C)=O)C1OC(C)=O (configuration not stated)
Test Readout: TGI
Measured Result: > 100 µM
--
Molecule: CCCCc1c(C(=O)OC(C)(C)C)cc(C#Cc2cc(C(=O)OC(C)(C)C)c(CCCC)c(C(=O)OC(C)(C)C)c2)cc1C(=O)OC(C)(C)C
Test Readout: TGI
Measured Result: > 100 µM
--
Molecule: COc1cccc(-c2ccc3c4c2O[C@H]2c5[nH]c6ccccc6c5C[C@@]5(O)[C@@H](C3)N(CC3CC3)CC[C@]425)c1
Test Readout: TGI
Measured Result: 3.22 µM
--
Molecule: Cc1ccc(S(=O)(=O)/N=C(\NN)Nc2ccc(Cl)cc2)cc1
Test Readout: TGI
Measured Result: > 100 µM

# input for lookup
# input Reported TGI, molecule `CC1(C)OC(=O)C=C([O-])O1.CC1(C)OC(=O)C=C([O-])O1.O=S(=O)([O-])c1ccc([O-])c2ncccc12.O=S(=O)([O-])c1ccc([O-])c2ncccc12.[Ti+4]` : ____
# output > 100 µM
